Test system: Escherichia coli
Assay: Binding affinity to Escherichia coli pBR322 G/GATCC DNA assessed as DNA strand cleavage at 625 to 2500 uM preincubated for 24 hrs prior to BamHI treatment measured after 1 hr by agarose gel electrophoresis
Activity calls are given as the source filed them. The rule behind the calls is not given here.
VALUE_TYPE: Activity

>>> reported_measurement("CN1CCN(Cc2ccc(F)cc2)P12=NP(N1CCCC1)(N1CCCC1)=NP(N1CCCC1)(N1CCCC1)=N2 (stereo not drawn)")
"Active"
>>> reported_measurement("CN1CCCN(Cc2ccc(F)cc2)P12=NP(N1CCC3(CC1)OCCO3)(N1CCC3(CC1)OCCO3)=NP(N1CCC3(CC1)OCCO3)(N1CCC3(CC1)OCCO3)=N2 (stereo not drawn)")
"Active"
>>> reported_measurement("CN1CCN(Cc2ccc(F)cc2)P12=NP(N1CCC3(CC1)OCCO3)(N1CCC3(CC1)OCCO3)=NP(N1CCC3(CC1)OCCO3)(N1CCC3(CC1)OCCO3)=N2 (stereo not drawn)")
"Active"

Values compiled from ChEMBL document CHEMBL3085711.
